test.target: T1, hPD-L1-Fc (human, UniProt Q9NZQ7 19-238)
T1 construct: human PD-L1 (hPD-L1), recombinant protein fused to Fc; also called hPD-L1 protein
T1 sequence (Q9NZQ7 19-238): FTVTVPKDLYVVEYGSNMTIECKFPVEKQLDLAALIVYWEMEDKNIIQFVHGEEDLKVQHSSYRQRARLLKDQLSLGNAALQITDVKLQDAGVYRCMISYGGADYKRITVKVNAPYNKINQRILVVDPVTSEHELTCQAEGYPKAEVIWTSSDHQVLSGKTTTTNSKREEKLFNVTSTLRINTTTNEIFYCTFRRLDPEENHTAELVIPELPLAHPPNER
test.protocol: flow cytometry on cells; blocking assay: peptide in serial dilution from 200 μM pre-incubated with 50 ng hPD-L1-Fc on ice for 30 min, mixture added to CHO-K1-hPD-1 cells (3 x 10^5 per sample) for 30 min, detected with anti-Fc PE antibody
experimental.parameters: both partners purified
No end group written: not given here.
Reported IC50 values for a set of binders
The response must be a number in µM with no trailing unit.

binder	quantity.unit	IC50
N(D‑glucose)YSKPTDRQYHF (L-type peptide ^LPPA-1, L-amino-acid analogue of the PD-L1-targeting D-peptide ^DPPA-1; printed in three-letter code; source: synthetic peptide (Fmoc solid-phase synthesis, purified by reverse-phase HPLC)) [D-glu-^LPPA-1]	µM	75

Pending binder:
For reference, reported IC50 for N(D‑galactose)YSKPTDRQYHF (L-type peptide ^LPPA-1, L-amino-acid analogue of the PD-L1-targeting D-peptide ^DPPA-1; printed in three-letter code; source: synthetic peptide (Fmoc solid-phase synthesis, purified by reverse-phase HPLC)) [D-gal-^LPPA-1] stands at 101
